Target system: Carnitine O-palmitoyltransferase 1, muscle isoform (Homo sapiens, UniProt Q92523)
Sequence (Q92523 whole entry, canonical isoform): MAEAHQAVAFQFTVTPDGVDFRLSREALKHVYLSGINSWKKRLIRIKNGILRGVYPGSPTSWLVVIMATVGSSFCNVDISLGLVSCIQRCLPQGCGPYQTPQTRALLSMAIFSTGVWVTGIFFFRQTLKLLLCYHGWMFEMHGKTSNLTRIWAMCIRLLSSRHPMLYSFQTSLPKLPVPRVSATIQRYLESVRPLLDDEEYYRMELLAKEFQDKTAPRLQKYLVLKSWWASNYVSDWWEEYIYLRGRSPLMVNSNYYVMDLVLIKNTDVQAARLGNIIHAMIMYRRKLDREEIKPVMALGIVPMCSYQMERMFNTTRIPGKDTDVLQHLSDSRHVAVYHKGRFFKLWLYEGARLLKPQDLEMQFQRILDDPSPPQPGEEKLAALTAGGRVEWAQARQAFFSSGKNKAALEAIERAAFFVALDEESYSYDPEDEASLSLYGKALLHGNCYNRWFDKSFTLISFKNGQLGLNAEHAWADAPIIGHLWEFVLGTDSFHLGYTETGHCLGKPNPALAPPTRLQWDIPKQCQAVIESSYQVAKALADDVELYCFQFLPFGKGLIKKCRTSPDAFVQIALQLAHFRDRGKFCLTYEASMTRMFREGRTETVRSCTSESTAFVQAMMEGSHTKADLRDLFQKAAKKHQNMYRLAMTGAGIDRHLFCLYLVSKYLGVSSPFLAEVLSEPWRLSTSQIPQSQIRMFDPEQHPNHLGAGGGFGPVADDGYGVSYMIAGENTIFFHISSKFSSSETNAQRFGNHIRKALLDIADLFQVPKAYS
Assay details: SUPPLEMENTARY: Inhibition of Carnitine palmitoyltransferase 1, muscle isoform
pIC50: −log10 of the molar value.
Recorded endpoint: pIC50

Asked: Kindly state the measured pIC50 obtained for "O=C(NC1CC1)c1cncc(-c2noc([C@H]3CCCCN3C(=O)COc3ccccc3)n2)c1" with Carnitine O-palmitoyltransferase 1, muscle isoform (Homo sapiens, UniProt Q92523).
Given back: < 4.00

Asked: Kindly state the measured pIC50 obtained for "COc1ccc(-c2nc([C@H]3CCCCN3C(=O)COc3ccccc3)cs2)cn1" with Carnitine O-palmitoyltransferase 1, muscle isoform (Homo sapiens, UniProt Q92523).
Given back: < 4.00

Asked: Kindly state the measured pIC50 obtained for "COc1ccc(Cl)cc1S(=O)(=O)c1c[nH]c2ccc(C(=O)Nc3ccccc3)cc12" with Carnitine O-palmitoyltransferase 1, muscle isoform (Homo sapiens, UniProt Q92523).
Given back: < 4.00

* * *

Give IC50 for every item shown.
Target system: Carnitine O-palmitoyltransferase 1, liver isoform (Rattus norvegicus, UniProt P32198)
Sequence (P32198 whole entry, canonical isoform): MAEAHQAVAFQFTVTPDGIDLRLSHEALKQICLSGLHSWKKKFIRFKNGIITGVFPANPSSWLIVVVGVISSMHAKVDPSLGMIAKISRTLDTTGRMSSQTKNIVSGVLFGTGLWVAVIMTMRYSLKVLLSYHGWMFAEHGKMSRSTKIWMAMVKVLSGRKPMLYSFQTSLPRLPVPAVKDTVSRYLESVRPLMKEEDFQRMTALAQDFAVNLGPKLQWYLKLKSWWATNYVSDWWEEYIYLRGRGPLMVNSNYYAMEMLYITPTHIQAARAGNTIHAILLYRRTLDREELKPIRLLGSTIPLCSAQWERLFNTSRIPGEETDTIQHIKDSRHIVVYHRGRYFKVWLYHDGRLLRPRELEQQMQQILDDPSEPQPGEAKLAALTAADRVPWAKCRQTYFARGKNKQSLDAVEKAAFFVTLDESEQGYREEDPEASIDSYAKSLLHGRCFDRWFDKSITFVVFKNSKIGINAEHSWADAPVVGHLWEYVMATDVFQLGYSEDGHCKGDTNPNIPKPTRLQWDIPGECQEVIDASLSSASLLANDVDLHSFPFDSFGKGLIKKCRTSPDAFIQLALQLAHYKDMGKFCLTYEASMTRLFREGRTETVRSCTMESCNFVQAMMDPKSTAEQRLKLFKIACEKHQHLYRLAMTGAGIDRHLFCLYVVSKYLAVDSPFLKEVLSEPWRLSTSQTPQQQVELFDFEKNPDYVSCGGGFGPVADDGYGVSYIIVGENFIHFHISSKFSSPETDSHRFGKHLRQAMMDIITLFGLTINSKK
Assay details: SUPPLEMENTARY: Inhibition of Carnitine palmitoyltransferase 1, liver isoform
Reply with just the number (in nM).

Asked: Would you mind telling me what IC50 value was observed for "O=C(COc1ccccc1)N1CCCC[C@@H]1c1noc(-c2ccc(Cl)nc2)n1" ?
Given back: 254

Asked: Would you mind telling me what IC50 value was observed for "Nc1cc(-c2nc([C@H]3CCCCN3C(=O)COc3ccccc3)no2)ccn1" ?
Given back: 372

Asked: Would you mind telling me what IC50 value was observed for "COc1ccc(Cl)cc1S(=O)(=O)N1CCCc2ccc(C(=O)Nc3ccc(C(=O)O)c(F)c3)cc21" ?
Given back: 47.7

Asked: Would you mind telling me what IC50 value was observed for "COc1ccc(Cl)cc1S(=O)(=O)N1CCOc2c(C(F)F)cc(C(=O)Nc3ccc(C(=O)O)cc3)cc21" ?
Given back: 2910

Asked: Would you mind telling me what IC50 value was observed for "O=C(COc1ccccc1)N1CCCC[C@@H]1c1nc(-c2cccc(N3CCCS3(=O)=O)c2)no1" ?
Given back: 59.8

Asked: Would you mind telling me what IC50 value was observed for "COc1ccc(Cl)cc1CN1C(=O)COc2ccc(C(=O)Nc3nc(CC(=O)O)cs3)cc21" ?
Given back: 85.9

Asked: Would you mind telling me what IC50 value was observed for "O=C1CN(c2cccc(-c3noc([C@H]4CCCCN4C(=O)COc4ccccc4)n3)c2)C(=O)N1" ?
Given back: 103

Asked: Would you mind telling me what IC50 value was observed for "O=C([C@H]1CCCCN1C(=O)COc1ccccc1)N1CCc2cccc(Cl)c2C1" ?
Given back: 110

Asked: Would you mind telling me what IC50 value was observed for "O=C([C@H]1CCCCN1C(=O)COc1ccccc1)N1CCN(c2cccc(Cl)c2)CC1" ?
Given back: 233

Asked: Would you mind telling me what IC50 value was observed for "CC(=O)Nc1cccc(-c2nc([C@H]3CCCCN3C(=O)COc3ccccc3)n(C)n2)c1" ?
Given back: 282

Asked: Would you mind telling me what IC50 value was observed for "O=C(COc1ccccc1)N1CCCC[C@@H]1c1nc(-c2cccc(-c3nnco3)c2)n[nH]1" ?
Given back: 388

Asked: Would you mind telling me what IC50 value was observed for "O=C(O)c1ccc(NC(=O)c2ccc3c(c2)N(Cc2cccc(Cl)c2)C(=O)CS3(=O)=O)cc1" ?
Given back: 184
